Ref: ChEMBL document CHEMBL1201862

Test system: CCRF-CEM
experimentSummary: NCI tumour cell line growth inhibition, 48 h
The source made the active and inactive calls. Cut-off read from the data, not from the text of the source: active = GI50 up to about 1.1 µM and inactive = higher.
Choose the fitting class; nothing outside active, inactive is accepted.

Short answer needed: outcome of this test for CN(C)CCn1c(=O)c2ccc3c4c(nn3CCN(C)C)c3cc(O)ccc3n(c1=O)c24 ?
active

Called result for CCCCCC(CN1CCOCC1)C(=O)/C=C/c1ccccc1 (centres undefined)
inactive

Recorded test outcome, item C/C=C/[C@@H](C(=O)OC)N1C(=O)c2ccccc2[C@H]1O
inactive

Could you check what this test reported for CC(=S)N/C=C1/C(=O)C=C(C)OC1=O ?
inactive

Called result for CCCc1c(C(=O)OCC)[nH]c(-c2ccc(-c3[nH]c(C(=O)OCC)c(CCC)c3C(=O)OCC)o2)c1C(=O)OCC
inactive

Test call, this molecule: CCCOC(=O)CCC(NC(=O)c1ccc(Nc2nc3ccccc3nc2-c2cccs2)cc1)C(=O)OCCC (centres undefined)
inactive

Dear colleague, could you share the recorded outcome for O=C1c2ccccc2C2=Cc3ccccc3C(O)N12 (centres undefined) when you have a moment?
inactive

// outcome(item) with item = NCCCNC1(c2cc3ccccc3s2)CCCCC1
inactive

For Sc1nn2c(Cc3ccccc3)nnc2s1 , what call appears in the results of this test?
inactive

How was O=c1cccc2n1C[C@H]1CNC[C@H]2C1 classified in this test?
inactive

Please share the test call associated with Clc1cc2n[se]nc2cc1Cl .
inactive

GET /call?item= COc1cccc2c(SCC(=O)Nc3ccccc3-c3ccccc3NC(=O)CSc3c4ccccc4nc4c(OC)cccc34)c3ccccc3nc12 returns the recorded outcome of this test.
inactive

I would be grateful if you could indicate the recorded call for COC1=CC(=O)c2ccccc2C1(CCC=C(C)C)C1=NC(C)(C)CO1 (centres undefined) .
inactive

Record request — test call for Cc1cc2ccccc2n1CC(=O)N1CCCC1
inactive

Per the records of this test, what outcome belongs to CCc1ccccc1NC(=O)C(=O)C(C(=O)c1ccc(OC)cc1)c1ccc(OC)cc1 (centres undefined) ?
inactive

In this assay, the call recorded for O=C1NC2(C=Cc3c(ccc4ccccc34)O2)Oc2ccccc21 (centres undefined) was what?
inactive

Recorded test outcome, item O=C(Nn1c(-c2ccccc2)nc2ccccc2c1=O)c1ccccc1O
inactive

How did this test come out for O=C(CSCC(=O)N/N=C/c1cccs1)N/N=C/c1cccs1 ?
inactive

Assay result, entry COc1ccc(C2C(C#N)=C(S)N(C3OC(CO)C(O)C(O)C3O)C(C)=C2C(C)=O)cc1 (centres undefined) — outcome?
inactive
